protocol-details: Phase 1: plasma pharmacokinetics, Cycle 1
Type: in vivo, human
condition-label: human, plasma, intravenous, 160 mg/m^2, Tmax, Cycle 1 mean plasma; 160 mg/m^2, 96 hr infusion (n=12)
assay-metric: Tmax (h)

given-smiles | numeric-value
O=C(Nc1c[nH]nc1-c1nc2ccc(CN3CCOCC3)cc2[nH]1)NC1CC1 | 59.3

====

protocol-details: Phase 1: plasma pharmacokinetics, Cycle 1
Type: in vivo, human
condition-label: human, plasma, intravenous, 160 mg/m^2

given-smiles | clearance
O=C(Nc1c[nH]nc1-c1nc2ccc(CN3CCOCC3)cc2[nH]1)NC1CC1 | 5.61 mL/min/kg

====

protocol-details: Phase 1: plasma pharmacokinetics, Cycle 1
Format: in vivo, human
condition-label: human, plasma, intravenous, 216 mg/m^2

given-smiles | clearance
O=C(Nc1c[nH]nc1-c1nc2ccc(CN3CCOCC3)cc2[nH]1)NC1CC1 | 7.13 mL/min/kg

====

protocol-details: Phase 1: plasma pharmacokinetics, Cycle 1
Format: in vivo, human
condition-label: human, plasma, intravenous, 9 mg/m^2

given-smiles | AUC(0-inf)
O=C(Nc1c[nH]nc1-c1nc2ccc(CN3CCOCC3)cc2[nH]1)NC1CC1 | 465 ng·h/mL

====

protocol-details: Phase 1: plasma pharmacokinetics, Cycle 1
Assay type: in vivo, human
condition-label: human, in vivo, Tmax

given-smiles | unit-label | Tmax
O=C(Nc1c[nH]nc1-c1nc2ccc(CN3CCOCC3)cc2[nH]1)NC1CC1 | h | 53.8

====

protocol-details: Phase 1: plasma pharmacokinetics, Cycle 1
Format: in vivo, human
condition-label: human, plasma, intravenous, 72 mg/m^2

given-smiles | Cmax (ng/mL)
O=C(Nc1c[nH]nc1-c1nc2ccc(CN3CCOCC3)cc2[nH]1)NC1CC1 | 131

====

protocol-details: Phase 1: plasma pharmacokinetics, Cycle 1
Format: in vivo, human
condition-label: human, plasma, intravenous, 144 mg/m^2
assay-metric: Cmax (ng/mL)

compound | assay-metric | numeric-value
O=C(Nc1c[nH]nc1-c1nc2ccc(CN3CCOCC3)cc2[nH]1)NC1CC1 [AT9283] | Cmax | 229

====

protocol-details: Phase 1: plasma pharmacokinetics, Cycle 1
Type: in vivo, human
condition-label: human, plasma, intravenous, 144 mg/m^2
assay-metric: clearance (mL/min/kg)

given-smiles | unit-label | numeric-value
O=C(Nc1c[nH]nc1-c1nc2ccc(CN3CCOCC3)cc2[nH]1)NC1CC1 | mL/min/kg | 4.27

====

protocol-details: Phase 1: plasma pharmacokinetics, Cycle 1
Format: in vivo, human
condition-label: human, plasma, intravenous, 72 mg/m^2
assay-metric: clearance (mL/min/kg)

given-smiles | assay-metric | numeric-value
O=C(Nc1c[nH]nc1-c1nc2ccc(CN3CCOCC3)cc2[nH]1)NC1CC1 | clearance | 1.84

====

protocol-details: Phase 1: plasma pharmacokinetics, Cycle 1
Format: in vivo, human
condition-label: human, plasma, intravenous, 36 mg/m^2
assay-metric: Cmax (ng/mL)

given-smiles | numeric-value
O=C(Nc1c[nH]nc1-c1nc2ccc(CN3CCOCC3)cc2[nH]1)NC1CC1 | 41.1

====

protocol-details: Phase 1: plasma pharmacokinetics, Cycle 1
Format: in vivo, human
condition-label: human, plasma, intravenous, 18 mg/m^2, Tmax, Cycle 1 mean plasma; 18 mg/m^2, 72 hr infusion (n=3)
assay-metric: Tmax (h)

given-smiles | numeric-value
O=C(Nc1c[nH]nc1-c1nc2ccc(CN3CCOCC3)cc2[nH]1)NC1CC1 | 62

====

protocol-details: Phase 1: plasma pharmacokinetics, Cycle 1
Assay type: in vivo, human
condition-label: human, plasma, intravenous, 18 mg/m^2
assay-metric: Cmax (ng/mL)

given-smiles | assay-metric | numeric-value
O=C(Nc1c[nH]nc1-c1nc2ccc(CN3CCOCC3)cc2[nH]1)NC1CC1 | Cmax | 18.1

====

protocol-details: Phase 1: plasma pharmacokinetics, Cycle 1
Assay type: in vivo, human
condition-label: human, plasma, intravenous, 160 mg/m^2
assay-metric: AUC(0-inf) (ng·h/mL)

given-smiles | numeric-value
O=C(Nc1c[nH]nc1-c1nc2ccc(CN3CCOCC3)cc2[nH]1)NC1CC1 | 13700

====

protocol-details: Phase 1: plasma pharmacokinetics, Cycle 1
Type: in vivo, human
condition-label: human, plasma, intravenous, 216 mg/m^2

molecule | Cmax (ng/mL)
O=C(Nc1c[nH]nc1-c1nc2ccc(CN3CCOCC3)cc2[nH]1)NC1CC1 [AT9283] | 228

====

protocol-details: Phase 1: plasma pharmacokinetics, Cycle 1
Type: in vivo, human
condition-label: human, plasma, intravenous, 200 mg/m^2
assay-metric: Cmax (ng/mL)

given-smiles | numeric-value
O=C(Nc1c[nH]nc1-c1nc2ccc(CN3CCOCC3)cc2[nH]1)NC1CC1 | 184

====

protocol-details: Phase 1: plasma pharmacokinetics, Cycle 1
Format: in vivo, human
condition-label: human, plasma, intravenous, 9 mg/m^2, Tmax, Cycle 1 mean plasma; 9 mg/m^2, 72 hr infusion (n=3)

given-smiles | Tmax [h]
O=C(Nc1c[nH]nc1-c1nc2ccc(CN3CCOCC3)cc2[nH]1)NC1CC1 | 47.2

====

protocol-details: Phase 1: plasma pharmacokinetics, Cycle 1
Type: in vivo, human
condition-label: human, plasma, intravenous, 200 mg/m^2
assay-metric: AUC(0-inf)

compound | result
O=C(Nc1c[nH]nc1-c1nc2ccc(CN3CCOCC3)cc2[nH]1)NC1CC1 [AT9283] | 19100 ng·h/mL

====

protocol-details: Phase 1: plasma pharmacokinetics, Cycle 1
Assay type: in vivo, human
condition-label: human, plasma, intravenous, 216 mg/m^2, Tmax, Cycle 1 mean plasma; 216 mg/m^2, 72 hr infusion (n=3)

given-smiles | Tmax / h
O=C(Nc1c[nH]nc1-c1nc2ccc(CN3CCOCC3)cc2[nH]1)NC1CC1 | 41.3

====

protocol-details: Phase 1: plasma pharmacokinetics, Cycle 1
Format: in vivo, human
condition-label: human, in vivo, Tmax of mean maximum plasma concentrations

molecule | Tmax
O=C(Nc1c[nH]nc1-c1nc2ccc(CN3CCOCC3)cc2[nH]1)NC1CC1 [AT9283] | 41 to 62 h

====

protocol-details: Phase 1: plasma pharmacokinetics, Cycle 1
Assay type: in vivo, human
condition-label: human, plasma, intravenous, 72 mg/m^2, Tmax, Cycle 1 mean plasma; 72 mg/m^2, 72 hr infusion (n=3)

compound | Tmax
O=C(Nc1c[nH]nc1-c1nc2ccc(CN3CCOCC3)cc2[nH]1)NC1CC1 [AT9283] | 46.7 h

====

protocol-details: Phase 1: plasma pharmacokinetics, Cycle 1
Format: in vivo, human
condition-label: human, plasma, intravenous, 160 mg/m^2

molecule | Cmax [ng/mL]
O=C(Nc1c[nH]nc1-c1nc2ccc(CN3CCOCC3)cc2[nH]1)NC1CC1 [AT9283] | 164

====

protocol-details: Phase 1: plasma pharmacokinetics, Cycle 1
Type: in vivo, human
condition-label: human, plasma, intravenous, 72 mg/m^2

compound | AUC(0-inf) [ng·h/mL]
O=C(Nc1c[nH]nc1-c1nc2ccc(CN3CCOCC3)cc2[nH]1)NC1CC1 [AT9283] | 16300

====

protocol-details: Phase 1: plasma pharmacokinetics, Cycle 1
Type: in vivo, human
condition-label: human, plasma, intravenous, 36 mg/m^2
assay-metric: AUC(0-inf) (ng·h/mL)

given-smiles | unit-label | numeric-value
O=C(Nc1c[nH]nc1-c1nc2ccc(CN3CCOCC3)cc2[nH]1)NC1CC1 | ng·h/mL | 2860

====

protocol-details: Phase 1: plasma pharmacokinetics, Cycle 1
Assay type: in vivo, human
condition-label: human, plasma, intravenous, 144 mg/m^2

given-smiles | unit-label | AUC(0-inf)
O=C(Nc1c[nH]nc1-c1nc2ccc(CN3CCOCC3)cc2[nH]1)NC1CC1 | ng·h/mL | 14300

====

protocol-details: Phase 1: plasma pharmacokinetics, Cycle 1
Assay type: in vivo, human
condition-label: human, plasma, intravenous, 18 mg/m^2
assay-metric: AUC(0-inf) (ng·h/mL)

given-smiles | assay-metric | numeric-value
O=C(Nc1c[nH]nc1-c1nc2ccc(CN3CCOCC3)cc2[nH]1)NC1CC1 | AUC(0-inf) | 1070

====

protocol-details: Phase 1: plasma pharmacokinetics, Cycle 1
Format: in vivo, human
condition-label: human, plasma, intravenous, 200 mg/m^2, Tmax, Cycle 1 mean plasma; 200 mg/m^2, 120 hr infusion (n=4)

compound | unit-label | Tmax
O=C(Nc1c[nH]nc1-c1nc2ccc(CN3CCOCC3)cc2[nH]1)NC1CC1 [AT9283] | h | 69

====

protocol-details: Phase 1: plasma pharmacokinetics, Cycle 1
Type: in vivo, human
condition-label: human, plasma, intravenous, 9 mg/m^2

given-smiles | clearance
O=C(Nc1c[nH]nc1-c1nc2ccc(CN3CCOCC3)cc2[nH]1)NC1CC1 | 9.52 mL/min/kg

====

protocol-details: Phase 1: plasma pharmacokinetics, Cycle 1
Format: in vivo, human
condition-label: human, plasma, intravenous, 36 mg/m^2, Tmax, Cycle 1 mean plasma; 36 mg/m^2, 72 hr infusion (n=7)
assay-metric: Tmax

given-smiles | result
O=C(Nc1c[nH]nc1-c1nc2ccc(CN3CCOCC3)cc2[nH]1)NC1CC1 | 53.2 h
